# assayed.system: Sodium-dependent serotonin transporter (Rattus norvegicus)
# assay.text: Serotonin neuronal reuptake blocking activity was determined by the antagonism of the head twitch response induced by treatment of rats
# Format: functional
# Set-up: concentration or dose not given beside the values
Listing of entries alongside the reported PCMA antagonism.

compound: O=[N+]([O-])c1ccc2nc(N3CCNCC3)cnc2c1
PCMA antagonism: 6
--
compound: CC(=O)N1CCN(c2cnc3cc(Cl)ccc3n2)CC1
PCMA antagonism: 1
--
compound: O=C(O)C1CN(c2cnc3ccccc3n2)CCN1 (centres undefined)
PCMA antagonism: 0
--
compound: Cl.Clc1ccc2nc(N3CCNCC3)cnc2c1
PCMA antagonism: 6
--
compound: Nc1nc2ccccc2nc1N1CCNCC1
PCMA antagonism: 1
--
compound: c1ccc2nc(N3CCNCC3)cnc2c1
PCMA antagonism: 2
--
compound: CN1CCN(c2nc3ccccc3nc2O)CC1
PCMA antagonism: 0
--
compound: CN1CCN(c2nc3ccc(S(N)(=O)=O)cc3nc2Cl)CC1
PCMA antagonism: 2
--
compound: Cl.Clc1cccc2nc(N3CCNCC3)cnc12
PCMA antagonism: 0
--
compound: Oc1ccc2nc(N3CCNCC3)cnc2c1
PCMA antagonism: 0
--
compound: COc1cccc2nc(N3CCNCC3)cnc12
PCMA antagonism: 1
--
compound: COc1ccc2nc(N3CCNCC3)cnc2c1
PCMA antagonism: 5
--
compound: Clc1cc2ncc(N3CCNCC3)nc2cc1Cl
PCMA antagonism: 4
--
compound: Fc1ccc2nc(N3CCNCC3)cnc2c1
PCMA antagonism: 2

---

# assayed.system: Serotonin (5-HT) receptor (Rattus norvegicus) (UniProt P35563+P35365+P32305+P31388+Q9JJ16+P28564+P30994+Q62758+P08909+P14842+P30940+P35364+P19327+P28565)
# assay.text: Ability to elicit head twitches in rats (a serotonin mimetic response)
# Format: functional
# Parameters: concentration or dose not given beside the values
Binary classification by Activity, with 1 as an inclusive lower bound for Satisfied; all other cases are Not satisfied.

smiles.entry: [O-][n+]1cc(N2CCNCC2)nc2ccccc21
discrete.label: Satisfied
--
smiles.entry: CN1CCN(c2nc3ccccc3nc2O)CC1
discrete.label: Not satisfied
--
smiles.entry: CC(=O)N1CCN(c2cnc3cc(Cl)ccc3n2)CC1
discrete.label: Satisfied
--
smiles.entry: CN(C)CCn1c(=O)c(N2CCNCC2)nc2ccccc21
discrete.label: Not satisfied
--
smiles.entry: Nc1ccc2nc(N3CCNCC3)cnc2c1
discrete.label: Satisfied
--
smiles.entry: O=C1CN(c2cnc3ccccc3n2)CCN1
discrete.label: Not satisfied
--
smiles.entry: Cl.Clc1ccc2nc(N3CCNCC3)cnc2c1
discrete.label: Not satisfied
--
smiles.entry: O=[N+]([O-])c1ccc2nc(N3CCNCC3)cnc2c1
discrete.label: Satisfied
--
smiles.entry: Fc1cccc2nc(N3CCNCC3)cnc12
discrete.label: Satisfied
--
smiles.entry: c1ccc2nc(N3CCNCC3)cnc2c1
discrete.label: Satisfied
--
smiles.entry: Cl.FC(F)(F)c1ccc2nc(N3CCNCC3)c(Sc3ccccc3)nc2c1
discrete.label: Satisfied
--
smiles.entry: Oc1ccc2nc(N3CCNCC3)cnc2c1
discrete.label: Not satisfied
--
smiles.entry: Cl.Clc1cccc2nc(N3CCNCC3)cnc12
discrete.label: Satisfied
--
smiles.entry: Fc1cccc2ncc(N3CCNCC3)nc12
discrete.label: Satisfied
--
smiles.entry: Clc1cc2ncc(N3CCNCC3)nc2cc1Cl
discrete.label: Satisfied
--
smiles.entry: Nc1nc2ccccc2nc1N1CCNCC1
discrete.label: Satisfied
--
smiles.entry: Oc1nc2ccccc2nc1N1CCNCC1
discrete.label: Satisfied
--
smiles.entry: COc1cccc2nc(N3CCNCC3)cnc12
discrete.label: Satisfied

Source of measurements: ChEMBL document CHEMBL1121884
